System: C. neoformans ATCC 36556
EXPERIMENT: C. neoformans growth inhibition (CLSI M27-A3 broth microdilution)
Type: cell-based
ASSAY CONTEXT: Cryptococcus neoformans, ATCC36556, 72 h, 50% inhibition, 72 h, triplicate values printed singly; read-out: ATCC36556 MIC-2
# Lookup of reported log10 MIC keyed by entry
Would you kindly interpret these values as log10 of MIC expressed in µg/mL?

Past entries and their recorded results:
COMPOUND	SYSTEM UNDER TEST	log10 MIC
COC(=O)C1CC2c3ccc([N+](=O)[O-])c4c3C(CC2N(C)C1)CN4C(=O)OCC(Cl)(Cl)Cl (stereo not drawn)	C. neoformans ATCC 36556	1.40
C[C@@H]1[C@H](O)[C@@H](C)/C=C/C=C/C=C/C=C/C=C/C=C/C=C/[C@H](O[C@@H]2O[C@H](C)[C@@H](O)[C@H](N)[C@@H]2O)C[C@@H]2O[C@](O)(C[C@@H](O)C[C@@H](O)[C@H](O)CC[C@@H](O)C[C@@H](O)CC(=O)O[C@H]1C)C[C@H](O)[C@H]2C(=O)O [Amphotericin B, reference compound]	C. neoformans ATCC 36556	-0.70
COC(=O)[C@@H]1C[C@@H]2c3cc([N+](=O)[O-])cc4c3[C@@H](CN4)C[C@H]2N(C)C1	C. neoformans ATCC 36556	1.70

Prompt line: Recall the recorded log10 MIC for COC(=O)C1CC2c3cc(O)cc4c3C(CC2N(C)C1)CN4C(C)=O (stereo not drawn) with C. neoformans ATCC 36556 and state it.
Response line: 1.40

Prompt line: Recall the recorded log10 MIC for COC(=O)[C@@H]1C[C@@H]2c3cccc4c3[C@H](C[C@H]2N(C)C1)CN4C(=O)OCC(Cl)(Cl)Cl with C. neoformans ATCC 36556 and state it.
Response line: 1.11

Prompt line: Recall the recorded log10 MIC for CN1C[C@H](C(=O)Nc2cccc(C(F)(F)F)c2)C[C@@H]2c3cccc4c3[C@H](C[C@H]21)CN4C(=O)OC(C)(C)C with C. neoformans ATCC 36556 and state it.
Response line: 0.50

Prompt line: Recall the recorded log10 MIC for COC(=O)[C@@H]1C[C@@H]2c3cc(OCc4ccccc4)cc4c3[C@H](C[C@H]2N(C)C1)CN4C(C)=O with C. neoformans ATCC 36556 and state it.
Response line: 1.70

----------
EXPERIMENT: MTS cytotoxicity assay
Assay type: cell-based
ASSAY CONTEXT: human, HepG2 cells, triplicates, logistic regression
PROPERTY MEASURED: pIC50
Here pIC50 is given on a logarithmic scale as minus log10 of the concentration in mol/L.

Prompt line: Form field: reported pIC50 of COC(=O)C1CC2c3ccc([N+](=O)[O-])c4c3C(CC2N(C)C1)CN4C(=O)OCC(Cl)(Cl)Cl (stereo not shown) [NGx04]
Response line: 3.80

----------
Test system: C. neoformans ATCC 36556
EXPERIMENT: C. neoformans growth inhibition (CLSI M27-A3 broth microdilution)
Type: cell-based
ASSAY CONTEXT: Cryptococcus neoformans, ATCC36556, 72 h, 50% inhibition, 72 h, triplicate values printed singly; read-out: ATCC36556 MIC-2
Method: Sec14p is reported to be essential for virulence as well as for growth in C. neoformans. The S. cerevisiae and C. neoformans proteins show 53% similarity by pair-wise alignment with higher conservation of the residues in the lipid-binding pocket (S2 Fig). […] Two clinical isolates of C. neoformans (ATCC 36556 and ATCC 90113) were plated in triplicates on increasing drug concentrations and MIC-2 (50% inhibition) and MIC-0 (no visible fungal growth) concentrations were scored after 72 hrs. […]
PROPERTY MEASURED: MIC

Past entries and their recorded results:
COMPOUND	SYSTEM UNDER TEST	MIC
COC(=O)[C@@H]1C[C@@H]2c3cc([N+](=O)[O-])cc4c3[C@H](C[C@H]2N(C)C1)CN4C(C)=O [NGx11]	C. neoformans ATCC 36556	25 µg/mL
COC(=O)[C@@H]1C[C@@H]2c3c([N+](=O)[O-])ccc4c3[C@H](C[C@H]2N(C)C1)CN4C(=O)OCC(Cl)(Cl)Cl [NGx19]	C. neoformans ATCC 36556	12.5 µg/mL
COC(=O)C1CC2c3cccc4c3C(CC2N(C(C)C)C1)CN4C(=O)OC(C)(C)C (stereo not shown) [NGx15]	C. neoformans ATCC 36556	> 50 µg/mL

Prompt line: Form field: reported MIC of CC(C)N1CC(C(=O)O)CC2c3cccc4c3C(CC21)CN4C(=O)OC(C)(C)C (stereo not shown) [NGx13]
Response line: 25 µg/mL
